Consider the following compounds and their measured BAF3-FGFR4 pIC50 readings.
molecular target: Ba/F3-FGFR4-transfected cells (Homo sapiens, UniProt P22455); assay: Ba/F3-FGFR4 cellular proliferation assay, Alamar Blue; format: cell-based
Sequence (P22455 whole entry, change not shown): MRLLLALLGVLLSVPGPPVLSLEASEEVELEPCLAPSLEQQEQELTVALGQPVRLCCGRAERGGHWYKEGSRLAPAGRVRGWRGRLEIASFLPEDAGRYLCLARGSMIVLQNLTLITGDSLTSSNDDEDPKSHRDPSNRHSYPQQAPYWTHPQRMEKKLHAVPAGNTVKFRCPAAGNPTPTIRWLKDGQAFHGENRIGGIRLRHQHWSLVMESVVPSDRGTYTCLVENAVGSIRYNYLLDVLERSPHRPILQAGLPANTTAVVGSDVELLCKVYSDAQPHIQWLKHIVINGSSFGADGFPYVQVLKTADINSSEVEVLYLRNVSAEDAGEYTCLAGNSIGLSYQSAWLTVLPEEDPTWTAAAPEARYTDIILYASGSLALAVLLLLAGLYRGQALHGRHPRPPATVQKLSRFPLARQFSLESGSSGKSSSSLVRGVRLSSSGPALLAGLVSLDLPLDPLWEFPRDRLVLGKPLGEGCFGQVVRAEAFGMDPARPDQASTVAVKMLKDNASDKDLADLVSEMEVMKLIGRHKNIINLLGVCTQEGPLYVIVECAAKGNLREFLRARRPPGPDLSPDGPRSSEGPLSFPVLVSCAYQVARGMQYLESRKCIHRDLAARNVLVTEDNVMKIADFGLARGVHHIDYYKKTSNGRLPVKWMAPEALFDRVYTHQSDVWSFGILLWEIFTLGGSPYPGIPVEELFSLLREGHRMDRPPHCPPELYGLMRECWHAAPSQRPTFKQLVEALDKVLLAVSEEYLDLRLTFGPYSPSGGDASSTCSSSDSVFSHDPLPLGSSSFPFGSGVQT
Enter a number only.

Consider the compound `COc1cc(OC)c(F)c(N(Cc2noc(C)n2)c2ccc3ncc(-c4cnn(C)c4)nc3n2)c1` and give its measured BAF3-FGFR4 pIC50.
6.99

====

Consider the following molecules and their measured IC50 readings.
biological target: FGFR3 (h) (Homo sapiens, UniProt P22607); assay: FGFR3 (enzymatic assay), TR-FRET; assay type: biochemical; settings: read-out: FGFR 3 pIC50 (converted)
Sequence (P22607 23-806): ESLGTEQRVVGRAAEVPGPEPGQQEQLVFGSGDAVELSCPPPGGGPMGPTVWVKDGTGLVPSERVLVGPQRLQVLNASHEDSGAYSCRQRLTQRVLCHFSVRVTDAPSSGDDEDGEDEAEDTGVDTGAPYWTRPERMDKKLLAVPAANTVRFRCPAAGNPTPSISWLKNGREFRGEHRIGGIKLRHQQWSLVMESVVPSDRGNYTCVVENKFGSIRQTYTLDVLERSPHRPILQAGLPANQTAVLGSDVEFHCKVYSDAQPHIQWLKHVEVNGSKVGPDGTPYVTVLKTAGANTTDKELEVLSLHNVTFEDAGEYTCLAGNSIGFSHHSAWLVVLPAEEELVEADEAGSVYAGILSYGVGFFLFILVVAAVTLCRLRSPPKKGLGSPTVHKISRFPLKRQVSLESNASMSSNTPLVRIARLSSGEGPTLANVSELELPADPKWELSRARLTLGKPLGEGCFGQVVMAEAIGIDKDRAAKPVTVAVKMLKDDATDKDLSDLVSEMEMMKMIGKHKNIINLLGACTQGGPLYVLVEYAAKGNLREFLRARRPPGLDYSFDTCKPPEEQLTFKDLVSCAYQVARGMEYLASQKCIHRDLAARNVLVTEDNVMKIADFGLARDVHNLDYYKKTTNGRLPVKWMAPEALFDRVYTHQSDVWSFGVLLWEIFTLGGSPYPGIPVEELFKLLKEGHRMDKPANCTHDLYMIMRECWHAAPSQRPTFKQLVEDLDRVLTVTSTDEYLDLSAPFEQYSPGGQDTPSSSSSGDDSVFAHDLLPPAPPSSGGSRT

Example entries begin here.
Molecule	Measured On	Result
COc1cc(OC)c(F)c(N(Cc2ncc[nH]2)c2ccc3ncc(N4C[C@@H](C)N[C@@H](C)C4)nc3n2)c1 [Compound 259]	FGFR3 (h) (Homo sapiens, UniProt P22607)	4.57 nM
COc1cc(OC)c(F)c(N(CCS(C)(=O)=O)c2ccc3ncc(-c4cnn(CCS(C)(=O)=O)c4)nc3n2)c1 [Compound 266]	FGFR3 (h) (Homo sapiens, UniProt P22607)	1.7 nM
COc1cc(/N=c2\ccc3ncc(-c4cnn(C)c4)nc3n2CC2CCC(=O)N2C)c(F)c(OC)c1 (stereo not shown) [Compound 158]	FGFR3 (h) (Homo sapiens, UniProt P22607)	1.29 nM

// moving on: another record for IC50
Consider the molecule COc1cc(/N=c2\ccc3ncc(-c4cnn(C)c4)nc3n2CC(C)(C)O)c(F)c(OC)c1 [Compound 246] and give its measured IC50.
0.794 nM
